System: A498 renal
Assay procedure: NCI tumour cell line growth inhibition, 48 h
Endpoint name: log10(TGI) (log10 of the value in µM)

>>> assay_result("N#C/C(=C\\c1cn(Cc2ccccc2)c2ccccc12)C(=O)Nc1ncc(Cc2ccccc2Cl)s1")
0.46
>>> assay_result("C=CCn1c(SCC(=O)Nc2ccc(C(=O)/C=C/c3cc(OC)c(OC)c(OC)c3)cc2)nnc1-c1ccc(Cl)cc1")
1.03
>>> assay_result("CCn1c2ccccc2c2cc(/C=C(/C#N)C(N)=S)ccc21")
-0.94
>>> assay_result("CCOC(=O)c1c(NC(=O)COc2cccc3cccnc23)sc(C(=O)N(C)C)c1C")
1.82
>>> assay_result("COc1ccc(N2C(=O)C3c4[nH]c5ccccc5c4C4CCC(c5ccccc5)CC4C3C2=O)cc1 (centres undefined)")
1.70
>>> assay_result("Cc1c(NC(=O)/C(=N/NC(=S)N=N)C2C(=O)CC(C)(C)CC2=O)c(O)c2ccccc2c1O")
1.55
>>> assay_result("COc1ccc(-c2csc(-n3c(-c4ccccc4)nc4c(Br)cc(Br)cc4c3=O)n2)cc1")
1.82
>>> assay_result("O=C1NC(=O)/C(=C/c2c(Cl)nc3sccn23)S1")
1.66
>>> assay_result("COc1cccc2c1C(=O)c1c(O)c3c(c(O)c1C2=O)CC(O)(/C(C)=N/NC(=O)CCCCC(=O)N/N=C(\\C)C1(O)Cc2c(O)c4c(c(O)c2C(OC2CC(N)C(O)C(C)O2)C1)C(=O)c1c(OC)cccc1C4=O)CC3OC1CC(N)C(O)C(C)O1 (centres undefined)")
0.13
>>> assay_result("COc1cc(/C=C/C(=O)c2ccc(Nc3nc(Nc4ccc(F)cc4)nc(Nc4ccc(Cl)cc4)n3)cc2)cc(OC)c1OC")
1.13
>>> assay_result("COc1ccc(-c2nnc(COc3ccc(Cl)cc3Cl)o2)cc1OC")
0.86
